System Name: Gal-4NL (Homo sapiens, UniProt P56470)
Construct: designated as Gal-4NL (aa 1-160), and Gal-4CL (aa 169-323), respectively
Sequence (P56470 1-160): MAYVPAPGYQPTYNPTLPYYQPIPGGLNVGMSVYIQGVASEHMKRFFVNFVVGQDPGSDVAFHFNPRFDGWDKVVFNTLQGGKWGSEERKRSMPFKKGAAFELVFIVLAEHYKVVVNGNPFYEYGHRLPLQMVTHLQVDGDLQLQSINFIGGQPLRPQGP
Protocol: competitive ELISA, inhibition of binding of Gal-4NL subunit to immobilized ASF
Condition: competitive ELISA, Gal-4NL 25 µM, immobilized ASF
Documented IC50 across a set of compounds
Observable: IC50 (µM)

- C[C@@H]1O[C@@H](O[C@H]2[C@H](O[C@H]3[C@H](O)[C@@H](O)C(O)O[C@@H]3CO)O[C@H](CO)[C@H](O)[C@@H]2O)[C@@H](O)[C@H](O)[C@@H]1O (some centres unmarked): 600
- CC(=O)N[C@H]1[C@@H](O[C@H]2[C@@H](O)[C@@H](CO)O[C@@H](O[C@H]3[C@H](O)[C@@H](O)C(O)O[C@@H]3CO)[C@@H]2O[C@@H]2O[C@@H](C)[C@@H](O)[C@@H](O)[C@@H]2O)O[C@H](CO)[C@H](O)[C@@H]1O (some centres unmarked) [blood-group antigen A (5), blood-group antigen A type 6]: 22
- CC(=O)N[C@H]1[C@H](O[C@H]2[C@@H](O)[C@@H](CO)O[C@@H](O[C@H]3[C@H](O)[C@@H](O)C(O)O[C@@H]3CO)[C@@H]2O)O[C@H](CO)[C@@H](O)[C@@H]1O[C@@H]1O[C@H](CO)[C@H](O)[C@H](O)[C@H]1O (some centres unmarked): 210
- CC(=O)N[C@H]1C(O)O[C@H](CO)[C@H](O)[C@@H]1O[C@@H]1O[C@H](CO)[C@H](O)[C@H](O)[C@H]1O (some centres unmarked) [TF antigen motif (9)]: 3500
- OC[C@H]1O[C@@H](O[C@H]2[C@H](O)[C@@H](O)[C@H](O)O[C@@H]2CO)[C@H](O)[C@@H](O)[C@H]1O: 2900

----------
Documented IC50 across a set of molecules
System Name: Gal-4 (Homo sapiens)
Protocol: competitive ELISA, inhibition of binding of whole Gal-4 to immobilized ASF
Condition: competitive ELISA, Gal-4 2.5 µM, immobilized ASF
Observable: IC50 (µM)

• CC(=O)N[C@H]1[C@H](O[C@H]2[C@@H](O)[C@@H](CO)O[C@@H](O[C@H]3[C@H](O)[C@@H](O)C(O)O[C@@H]3CO)[C@@H]2O)O[C@H](CO)[C@@H](O)[C@@H]1O[C@@H]1O[C@H](CO)[C@H](O)[C@H](O)[C@H]1O (stereo partly shown) = 430
• C[C@@H]1O[C@@H](O[C@H]2[C@H](O[C@H]3[C@H](O)[C@@H](O)C(O)O[C@@H]3CO)O[C@H](CO)[C@H](O)[C@@H]2O[C@H]2O[C@H](CO)[C@H](O)[C@H](O)[C@H]2O)[C@@H](O)[C@H](O)[C@@H]1O (stereo partly shown) [blood-group antigen B (6), blood-group antigen B type 6] = 80
• C[C@@H]1O[C@@H](O[C@H]2[C@H](O[C@H]3[C@H](O)[C@@H](O)C(O)O[C@@H]3CO)O[C@H](CO)[C@H](O)[C@@H]2O)[C@@H](O)[C@H](O)[C@@H]1O (stereo partly shown) = 1500
• CC(C)(C)OC(=O)NCCNC(=S)N[C@@H]1O[C@H](CO)[C@@H](O[C@@H]2O[C@H](CO)[C@H](O)[C@H](O)[C@H]2O)[C@H](O)[C@H]1O = 2500
